Biological target: rat TGR23-1 expressing CHO cells (Rattus norvegicus, UniProt P0C0L6, DEL160-160)
Construct: The rat TGR23-1 expressing vector was constructed by digestion of plasmid pCR2.1-rTGR23-1 with Sal I and Spe I; expressed in transfected cells; host or cells: CHO dhfr- cells, pAKKO-rTGR23-1, clone No. 34
Sequence (P0C0L6 with tags, fused parts or gaps DEL160-160): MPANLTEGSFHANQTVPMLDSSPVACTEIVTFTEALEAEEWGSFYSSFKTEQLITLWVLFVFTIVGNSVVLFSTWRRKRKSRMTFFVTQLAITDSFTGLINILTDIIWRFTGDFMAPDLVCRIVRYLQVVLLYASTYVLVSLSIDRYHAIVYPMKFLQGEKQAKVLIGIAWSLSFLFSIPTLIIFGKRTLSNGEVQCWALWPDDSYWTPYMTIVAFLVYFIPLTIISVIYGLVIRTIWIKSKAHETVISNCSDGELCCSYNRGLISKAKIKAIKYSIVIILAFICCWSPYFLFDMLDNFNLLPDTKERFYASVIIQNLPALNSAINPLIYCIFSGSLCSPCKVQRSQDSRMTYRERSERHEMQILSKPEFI
Assay: Intracellular Ca ion concentration increasing activity using FLIPR
Assay type: cell-based
Conditions: rat TGR23-1 expressing cells, calculated from graph FIG. 27
Description: An enhancing activity of intracellular Ca^2+ release was assayed using FLIPR (Molecular Devices, Inc.). The CHO/TGR23-2 cells prepared in Example 1 and selected in Example 2 were plated on 96-well plate at 3×10^4 cells/well and cultured for 24 hours. […] The enhancing activity of intracellular Ca^2+ release was measured as an increase of fluorescent intensity, which is raised by addition of the sample. […]
Where no end group is shown, it is not given here.
EXPERIMENTAL_READOUT: EC50 (nM)

SFRNGVGSGVKKTSFRRA [rat TGR23-2 ligand (1-18)]; 0.19

Value source: patent US7323541B2
